src = BigSolDB 2.1

- DETAILS: in n-propanol, 307.15 K
MEASURED_PROPERTY: solubility (mole fraction)
No unit in the answer, please; the number alone is enough.

Which solubility (mole fraction) is listed for CCOC(=O)c1ccc(N)cc1 ?
0.121

---

- DETAILS: in isobutanol, 318.15 K
MEASURED_PROPERTY: solubility (mole fraction)
No unit in the answer, please; the number alone is enough.

Which solubility (mole fraction) is listed for CCOC(=O)c1ccc(N)cc1 ?
0.168
